biological target: PDE5 (Homo sapiens, UniProt O76074); test: Phosphodiesterase 5 enzyme activity assay; format: biochemical; settings: read-out: PDE5 activity, decrease (↓, inhibition)
Form field: inhibition at 10 µM (one value per entry).
Readout kind: inhibition at 10 µM (%)

{"Compound": "COc1ccc(N/C(C)=C\\C(=O)Nc2nccs2)cc1 [Compound 23b]", "Readout kind": "inhibition at 10 µM", "Value reported": 100}
{"Compound": "C/C(=C/C(=O)Nc1nccs1)Nc1ccccc1 [Compound 23a]", "Readout kind": "inhibition at 10 µM", "Value reported": 100}
{"Compound": "CCCc1nn(C)c2c(=O)[nH]c(-c3cc(S(=O)(=O)N4CCN(C)CC4)ccc3OCC)nc12 [Sildenafil, sildenafil, reference compound]", "Readout kind": "inhibition at 10 µM", "Value reported": 100}
{"Compound": "C/C(=C/C(=O)Nc1nccs1)Nc1ccc(Cl)cc1 [Compound 23c]", "Readout kind": "inhibition at 10 µM", "Value reported": 100}
{"Compound": "CC(=O)C(=NO)C(=O)Nc1nccs1", "Readout kind": "inhibition at 10 µM", "Value reported": 53}
{"Compound": "Cc1cc(O)n(-c2nccs2)n1", "Readout kind": "inhibition at 10 µM", "Value reported": 75}
